# System: MYLK4
# conditions-used: concentration: 1 μM, replicates: in singlicate; n = 1;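 further: KINOMEscan kinase panel screen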
recorded-endpoint: %Inh (%)

compound: Cc1cn2c(=O)cc(N3CCOCC3)nc2n1Cc1cccc(Cl)c1Cl
recorded-endpoint: %Inh
numeric-readout: 9
//
compound: Cn1cc(-c2ccc3c(c2)CCN3C(=O)Cc2ccccc2Cl)c2c(N)ncnc21
recorded-endpoint: %Inh
numeric-readout: 2
//
compound: CC(=O)Nc1ccc(COc2ccc(Nc3ccnc4cc(-c5ccccn5)ccc34)cc2)cc1.Cl
recorded-endpoint: %Inh
numeric-readout: 16
//
compound: COCCNC(=O)c1ccc(-c2cc(C(=O)NC3CC3)cc(F)c2C)cc1
recorded-endpoint: %Inh
numeric-readout: 5
//
compound: COc1ccc(COc2cc(-n3cnc4ccccc43)sc2C(N)=O)cc1
recorded-endpoint: %Inh
numeric-readout: 0
//
compound: Cc1ccc(NC(=O)c2ccnc(N3CCN(C)CC3)c2)cc1-c1ccc(C(=O)NCC2CC2)cc1
recorded-endpoint: %Inh
numeric-readout: 0
//
compound: O=C(c1ccc(-c2cc(-c3c[nH]nc3-c3ccccn3)ccn2)cc1)N1CCOCC1
recorded-endpoint: %Inh
numeric-readout: 26
//
compound: COc1ccc(CNC(=O)NC2CCN(c3ccnc(Nc4ccc(OC)cc4)n3)C2)cc1 (stereo not shown)
recorded-endpoint: %Inh
numeric-readout: 0
//
compound: O=C(NCCNc1ccnc(Nc2ccc(F)cc2)n1)Nc1ccccc1F
recorded-endpoint: %Inh
numeric-readout: 0
//
compound: Cc1c2ccc(N(C)c3ccnc(Nc4cccc(S(N)(=O)=O)c4)n3)cc2nn1Cc1ccccc1.Cl.Cl
recorded-endpoint: %Inh
numeric-readout: 0
//
compound: COc1ccc(Nc2ncc(C#N)c(Nc3ccccc3C(N)=O)n2)cc1N1CCN(C)CC1.Cl
recorded-endpoint: %Inh
numeric-readout: 98.2
//
compound: Nc1nccc(-c2c(-c3ccc(F)cc3)ncn2C2CCN(CC(F)(F)F)CC2)n1
recorded-endpoint: %Inh
numeric-readout: 0
//
compound: Fc1ccc(-c2ncn(CCCN3CCOCC3)c2-c2cccnc2)cc1
recorded-endpoint: %Inh
numeric-readout: 0

----------
%Inh: recorded values
# Test system: HIPK1
# conditions-used: concentration: 1 μM, replicates: in singlicate; n = 1
recorded-endpoint: %Inh

compound: NS(=O)(=O)c1cccc(-c2ccc3ncc(N4CCOCC4)nc3c2)c1
subject-of-test: HIPK1
result: 10%
//
compound: COc1ccc(Nc2nccc(N3CCC(NC(=O)Nc4cc(C)ccc4C)C3)n2)cc1 (stereo not drawn)
subject-of-test: HIPK1
result: 0%
//
compound: Cc1cn2c(=O)cc(N3CCOCC3)nc2n1Cc1cccc(Cl)c1Cl
subject-of-test: HIPK1
result: 0%

----------
# System: GRK1
# conditions-used: concentration: 1 μM, replicates: in singlicate; n = 1
Listed molecules paired with reported %Inh

molecule: [2H]C([2H])(c1cccc(C(F)(F)F)c1C)n1ccn2c(=O)nc(N3CCOCC3)cc12 [GSK2336394]
%Inh (%): 0
--
molecule: Cc1nnc(-c2ccc(C)c(-c3ccc(C(=O)Nc4ccc(NS(C)(=O)=O)cc4)cc3)c2)o1 [GW702865]
%Inh (%): 0
--
molecule: Nc1nc(-c2ccc3c(N)n[nH]c3c2)cc(N2CCCC2)n1 [GSK2227430]
%Inh (%): 0
--
molecule: O=c1cc(N2CCOCC2)nc2n(Cc3cccc(F)c3)ccn12 [GSK2297430]
%Inh (%): 0
--
molecule: O=C(Nc1n[nH]c2cc(-c3cccc(F)c3)ccc12)C1CC1 [SB-735464]
%Inh (%): 14
--
molecule: c1ccc(-c2cc(-c3c[nH]nc3-c3ccccn3)ccn2)cc1 [GW576604]
%Inh (%): 0
--
molecule: O=C(NCCNc1ccnc(Nc2ccc(F)cc2)n1)c1cc2ccccc2s1 [GSK1379874]
%Inh (%): 0
--
molecule: O=C1Cc2cc(Nc3nc(NCc4cccc(S(=O)(=O)C(F)(F)F)c4)ncc3C(F)(F)F)ccc2N1
%Inh (%): 0
--
molecule: COc1cc(Nc2nccc(N3CCC(NC(=O)c4cccc(NC(C)=O)c4)C3)n2)cc(OC)c1OC (centres unmarked) [GSK1379754]
%Inh (%): 0
--
molecule: COC(=O)Nc1nc2cc(Oc3ccc(NC(=O)Nc4cc(F)ccc4F)cc3)ccc2[nH]1.Cl [GW701424]
%Inh (%): 11
--
molecule: CN(C1=C(c2ccccc2)C(=O)NC1=O)c1ccccc1 [SB-334860]
%Inh (%): 9
--
molecule: CCc1nc(-c2cccc(C)c2)c(-c2ccnc(NCc3ccccc3)c2)s1
%Inh (%): 9
--
molecule: O=C(Nc1cccc(-c2nn3ncccc3c2-c2ccnc(Nc3cccc(C(F)(F)F)c3)n2)c1)c1c(F)cccc1F [GSK299495]
%Inh (%): 6
--
molecule: O=c1cc(N2CCOCC2)nc2n(Cc3cccc(C(F)(F)F)c3)ccn12 [GSK2297543]
%Inh (%): 0
--
molecule: c1ccc(-c2n[nH]cc2-c2ccnc3ccccc23)nc1 [GW271431]
%Inh (%): 0
--
molecule: Cc1cn2c(=O)cc(N3CCOCC3)nc2n1Cc1cccc(Cl)c1Cl [GSK2334006]
%Inh (%): 2
--
molecule: N#Cc1c(N2CCOCC2)sc(-c2ccn[nH]2)c1-c1ccc(Cl)cc1
%Inh (%): 15

----------
# Tested on: NDR2
# conditions-used: concentration: 1 μM, replicates: in singlicate; n = 1
# %Inh per record follows
recorded-endpoint: %Inh (%)

compound: [2H]C([2H])(c1cccc(C(F)(F)F)c1C)n1ccn2c(=O)nc(N3CCOCC3)cc12
numeric-readout: 0

compound: Cc1c2ccc(N(C)c3ccnc(Nc4cccc(S(N)(=O)=O)c4)n3)cc2nn1Cc1ccccc1.Cl.Cl
numeric-readout: 1

compound: CCn1cnc2c(N)ncnc21
numeric-readout: 8

compound: O=C(NCCNc1ccnc(Nc2ccc(F)cc2)n1)Nc1ccccc1F
numeric-readout: 0

compound: Cn1cc(-c2ccc3c(c2)CCN3C(=O)Cc2ccccc2Cl)c2c(N)ncnc21
numeric-readout: 0

compound: Fc1ccc(-c2ncn(CCCN3CCOCC3)c2-c2ccccn2)cc1
numeric-readout: 0

compound: c1ccc(-c2cc(-c3c[nH]nc3-c3ccccn3)ccn2)cc1
numeric-readout: 23

compound: Cc1ccc(NC(=O)c2ccnc(N3CCN(C)CC3)c2)cc1-c1ccc(C(=O)NCC2CC2)cc1
numeric-readout: 0

compound: Cc1nnc(-c2ccc3occ(-c4ccc(C(C)O)cc4)c3c2)o1 (stereo not drawn)
numeric-readout: 55

----------
# System: RIOK2
# conditions-used: concentration: 1 μM, replicates: in singlicate; n = 1
recorded-endpoint: %Inh (%)

compound: N#Cc1ccc(-c2cc(-c3c[nH]nc3-c3ccccn3)ccn2)cc1 [GW693028]
recorded-endpoint: %Inh
numeric-readout: 0
--
compound: Cc1cccc(-c2nc(-c3ccc(S(C)(=O)=O)cc3)sc2-c2ccncc2)c1
recorded-endpoint: %Inh
numeric-readout: 27
--
compound: Fc1ccc(-c2nn3c(OCC(F)(F)F)cccc3c2-c2ccncc2)cc1 [GW514784]
recorded-endpoint: %Inh
numeric-readout: 0
--
compound: NS(=O)(=O)CCc1cccc(Nc2nccc(-c3c(-c4cccc(NC(=O)c5c(F)cccc5F)c4)nn4ccccc34)n2)c1 [GSK336735]
recorded-endpoint: %Inh
numeric-readout: 17
--
compound: Cc1c2ccc(N(C)c3ccnc(Nc4cccc(S(N)(=O)=O)c4)n3)cc2nn1Cc1ccccc1.Cl.Cl [GW787226]
recorded-endpoint: %Inh
numeric-readout: 15
--
compound: COc1cc2ncn(-c3cc(OCc4sccc4Cl)c(C(N)=O)s3)c2cc1OC [GSK448459]
recorded-endpoint: %Inh
numeric-readout: 13
--
compound: O=c1cc(N2CCOCC2)nc2n(Cc3cccc4ccccc34)ccn12 [GSK2333389]
recorded-endpoint: %Inh
numeric-readout: 47
--
compound: CN1c2ccc(CNc3ccc(F)cc3)cc2-c2c(cnn2C)S1(=O)=O
recorded-endpoint: %Inh
numeric-readout: 0
--
compound: Nc1nc(-c2ccc3c(N)n[nH]c3c2)cc(N2CCCC2)n1 [GSK2227430]
recorded-endpoint: %Inh
numeric-readout: 2

----------
Some molecules, each annotated with its measured %Inh.
# Test system: HCK
# conditions-used: concentration: 1 μM, replicates: in singlicate; n = 1
recorded-endpoint: %Inh (%)

molecule: O=C1Cc2cc(Nc3nc(NCc4cccc(S(=O)(=O)C(F)(F)F)c4)ncc3C(F)(F)F)ccc2N1
numeric-readout: 21
//
molecule: Cn1ccc2ncnc(Oc3ccc(NC(=O)Nc4ccncc4)c(Cl)c3)c21
numeric-readout: 0
//
molecule: [2H]C([2H])(c1cccc(C(F)(F)F)c1C)n1ccn2c(=O)nc(N3CCOCC3)cc12 [GSK2336394]
numeric-readout: 0
//
molecule: CCCCCc1nc2c(N)ncnc2n1CCCCC [SKF-97255]
numeric-readout: 26
//
molecule: COc1ccc(COc2cc(-n3cnc4ccccc43)sc2C(N)=O)cc1 [GSK1024304]
numeric-readout: 0
//
molecule: COc1ccc(Nc2nccc(N3CCC(NC(=O)Nc4cc(C)ccc4C)C3)n2)cc1 (stereo not drawn) [GSK1379741]
numeric-readout: 0
//
molecule: CN(C(=O)c1ccc(-c2cc(-c3c[nH]nc3-c3ccccn3)ccn2)cc1)C1CCOCC1 [GW810083]
numeric-readout: 0
//
molecule: N#Cc1ccc(-c2cc(-c3c[nH]nc3-c3ccccn3)ccn2)cc1 [GW693028]
numeric-readout: 0
//
molecule: CSc1ccc(-c2cc3ncnc(SCC(=O)O)c3s2)cc1
numeric-readout: 33
//
molecule: Cc1c2ccc(N(C)c3ccnc(Nc4cccc(S(N)(=O)=O)c4)n3)cc2nn1Cc1ccccc1.Cl.Cl [GW787226]
numeric-readout: 91.7
//
molecule: Nc1nccc(-c2c(-c3ccc(F)cc3)ncn2C2CCN(CC(F)(F)F)CC2)n1 [SB-236560]
numeric-readout: 0
//
molecule: NS(=O)(=O)c1cccc(-c2ccc3nccc(-c4cccc(S(N)(=O)=O)c4)c3c2)c1 [GW867253]
numeric-readout: 20
//
molecule: O=C1NC(=O)C(N2CCc3ccccc32)=C1c1cccc(Cl)c1 [SB-408010]
numeric-readout: 25
//
molecule: O=c1cc(N2CCOCC2)nc2n(Cc3cccc4ccccc34)ccn12 [GSK2333389]
numeric-readout: 0
//
molecule: O=C(Nc1cccc(-c2nn3ncccc3c2-c2ccnc(Nc3cccc(C(F)(F)F)c3)n2)c1)c1c(F)cccc1F [GSK299495]
numeric-readout: 98.1
//
molecule: Cc1cccc(-c2nc(-c3ccc(S(C)(=O)=O)cc3)sc2-c2ccncc2)c1
numeric-readout: 11
//
molecule: Cc1cccc(-c2nc(Nc3ccc4ncsc4c3)c3ccccc3n2)n1 [GW867588]
numeric-readout: 24
//
molecule: CNc1ncnc2[nH]ncc12 [SKF-18355]
numeric-readout: 16

meta.source: paper PMC5540273
